- TARGET UNDER TEST: Platelet-activating factor acetylhydrolase IB subunit alpha2 (Mus musculus)
- TEST PROTOCOL: Competitive ABPP Assays in Proteomes with FP-alkyne
- RUN CONDITIONS: pH 7.5
MEASURED ENDPOINT: IC50 (nM)
Write down the numeric answer in nM and omit the unit.

query: # lookup: IC50 of C=CCNC(=O)C1=CCC(c2ccc(C)cc2)N(S(=O)(=O)c2ccc(C)cc2)C1c1ccc(C(C)(C)C)cc1 (centres undefined)
result: 7500

query: # lookup: IC50 of COCCNC(=O)C1=CCC(c2ccc(C)cc2)N(S(=O)(=O)c2ccc(C)cc2)C1c1ccc(C(C)(C)C)cc1 (centres undefined)
result: 1700

query: # lookup: IC50 of Cc1ccc(S(=O)(=O)N2C(c3ccc(C(C)C)cc3)CC=C(C(=O)O)C2c2ccc(F)cc2)cc1 (centres undefined)
result: 1100

query: # lookup: IC50 of Cc1ccc(S(=O)(=O)N2C(c3ccc(Cl)c(Cl)c3)CC=C(C(=O)O)C2c2ccc(Br)cc2)cc1 (centres undefined)
result: 1400

====

- TARGET UNDER TEST: Platelet-activating factor acetylhydrolase IB subunit alpha2 (Mus musculus, UniProt Q61206)
- Sequence (Q61206 whole entry): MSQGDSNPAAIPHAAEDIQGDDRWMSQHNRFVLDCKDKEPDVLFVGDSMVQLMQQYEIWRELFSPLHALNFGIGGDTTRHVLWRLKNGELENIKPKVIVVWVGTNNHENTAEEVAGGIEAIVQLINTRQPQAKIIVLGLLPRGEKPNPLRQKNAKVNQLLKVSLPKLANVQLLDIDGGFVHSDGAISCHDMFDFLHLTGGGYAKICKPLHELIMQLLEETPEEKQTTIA
- TEST PROTOCOL: Competitive ABPP Assays in Proteomes with FP-alkyne
- RUN CONDITIONS: pH 7.5
Decision: IC50 beneath 2 µM gives YES; IC50 meeting or exceeding 2 µM gives NO.

query: I'd appreciate it if you could check whether Cc1ccc(S(=O)(=O)N2C(c3ccc(Cl)cc3)CC=C(C(=O)O)C2c2ccc(Br)cc2)cc1 (stereo not drawn) has IC50 smaller than 2 µM.
result: YES

query: I'd appreciate it if you could check whether COC(=O)C1=CCC(c2ccc(C)cc2)N(S(=O)(=O)c2ccc(C)cc2)C1c1ccc(C(C)(C)C)cc1 (stereo not drawn) has IC50 smaller than 2 µM.
result: NO

query: I'd appreciate it if you could check whether CNC(=O)C1=CCC(c2ccc(C)cc2)N(S(=O)(=O)c2ccc(C)cc2)C1c1ccc(C(C)(C)C)cc1 (stereo not drawn) has IC50 smaller than 2 µM.
result: NO

query: I'd appreciate it if you could check whether Cc1ccc(C2CC=C(C(=O)NC3CCCCC3)C(c3ccc(C(C)(C)C)cc3)N2S(=O)(=O)c2ccc(C)cc2)cc1 (stereo not drawn) has IC50 smaller than 2 µM.
result: NO

query: I'd appreciate it if you could check whether Cc1ccc(C2CC=C(CNC3CC3)C(c3ccc(C(C)(C)C)cc3)N2S(=O)(=O)c2ccc(C)cc2)cc1 (stereo not drawn) has IC50 smaller than 2 µM.
result: NO

query: I'd appreciate it if you could check whether Cc1ccc(C2CC=C(CBr)C(c3ccc(C(C)(C)C)cc3)N2S(=O)(=O)c2ccc(C)cc2)cc1 (stereo not drawn) has IC50 smaller than 2 µM.
result: NO

query: I'd appreciate it if you could check whether Cc1ccc(C2CC=C(C(=O)O)C(c3ccc(C(C)(C)C)cc3)N2S(=O)(=O)c2ccc(C)cc2)cc1 (stereo not drawn) has IC50 smaller than 2 µM.
result: YES

Values compiled from BindingDB's records for doi:10.1021/cb500893q.
